- assay system: HLA-B*18:01
- assay text: IEDB peptide-MHC binding, purified MHC/competitive/fluorescence; filed as Kd, often an IC50 or EC50 that approximates it; bounds were set here for any values at or beyond the usual limits of such assays
- measurement setup: source organism: Variola virus
quantity measured: Kd (nM)
Write the answer as a number in nM, unit excluded.

Inquiry: Data request, read-out Kd, for `VYSFDESSF`
Reply text: 379

---

- assay system: HLA-B*39:01
- assay text: IEDB peptide-MHC binding, purified MHC/direct/fluorescence; filed as Kd, often an IC50 or EC50 that approximates it; bounds were set here for any values at or beyond the usual limits of such assays
- measurement setup: source organism: Cowpox virus
quantity measured: Kd

Inquiry: What value of Kd on HLA-B*39:01 does `YHRPLTGYM` have?
Reply text: ≥ 20 µM
